# credit: patent US20110130413A1

experiment: Solubility; assay type: physicochemical; settings: aqueous solution, aqueous buffer; pH range of 4-8
PARAMETER MEASURED: solubility

[[record]]
molecule = "O=C1CN2Cc3c(ccc(Cl)c3Cl)N=C2N1 [anagrelide]"
parameter_measured = "solubility"
experimental_result = "< 10 µg/mL"


====

experiment: Solubility; format: physicochemical; settings: simulated gastric fluid; in 0.1M HCl
PARAMETER MEASURED: solubility

[[record]]
molecule = "O=C1CN2Cc3c(ccc(Cl)c3Cl)N=C2N1 [anagrelide]"
experimental_result = "~170 µg/mL"

